Protocol details: Cytotoxicity against human MCF7 cells assessed as reduction in cell viability at 5 to 20 uM measured after 24 hrs by MTT assay relative to control
Format: cell-based
Recorded conditions: dose 5-20 µM, read-out: INH
Parameter measured: cytotoxicity at 24 h, up to 20 µM

Lab note: measured cytotoxicity at 24 h, up to 20 µM of COc1ccc(OC)c2c1OC(=O)CC[C@H](O)C2=O was < 30%
